FYI, the data here is from ChEMBL document CHEMBL1132008.

- ASSAY_DETAILS: Inhibition of platelet aggregation in citreated human platelet rich plasma (PRP)
MEASURE_NAME: pIC50
// pIC50: -log10(molar conc.)

Given CCCCOC(=O)N[C@@H](CNC(=O)C[C@H]1CC(c2ccc(C(=N)N)cc2)=NO1)C(=O)O , state its recorded pIC50.
7.30

###

- TARGET_SYSTEM: Integrin alpha-IIb/beta-3 (Homo sapiens, UniProt P05106+P08514)
- Sequence (P05106 27-788 limits assumed): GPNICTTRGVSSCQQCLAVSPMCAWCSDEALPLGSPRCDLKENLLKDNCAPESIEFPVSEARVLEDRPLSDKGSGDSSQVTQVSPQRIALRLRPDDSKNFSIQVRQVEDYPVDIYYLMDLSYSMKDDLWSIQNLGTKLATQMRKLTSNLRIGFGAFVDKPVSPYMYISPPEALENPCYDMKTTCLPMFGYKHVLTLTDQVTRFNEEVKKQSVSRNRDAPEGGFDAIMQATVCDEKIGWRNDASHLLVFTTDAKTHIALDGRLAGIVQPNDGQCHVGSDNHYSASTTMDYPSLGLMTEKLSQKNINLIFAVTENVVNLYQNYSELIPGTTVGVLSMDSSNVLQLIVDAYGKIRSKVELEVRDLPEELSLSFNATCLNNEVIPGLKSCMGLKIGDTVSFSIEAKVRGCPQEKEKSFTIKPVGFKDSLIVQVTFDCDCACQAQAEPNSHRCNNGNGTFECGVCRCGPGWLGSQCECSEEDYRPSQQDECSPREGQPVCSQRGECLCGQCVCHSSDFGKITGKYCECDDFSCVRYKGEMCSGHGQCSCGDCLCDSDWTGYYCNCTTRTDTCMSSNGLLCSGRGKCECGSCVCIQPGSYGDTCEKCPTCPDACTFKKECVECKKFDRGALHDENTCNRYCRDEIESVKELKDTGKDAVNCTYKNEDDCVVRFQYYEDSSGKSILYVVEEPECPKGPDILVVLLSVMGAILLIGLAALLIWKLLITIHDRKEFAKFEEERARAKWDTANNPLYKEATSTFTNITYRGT
- Sequence (P08514 32-887 limits assumed): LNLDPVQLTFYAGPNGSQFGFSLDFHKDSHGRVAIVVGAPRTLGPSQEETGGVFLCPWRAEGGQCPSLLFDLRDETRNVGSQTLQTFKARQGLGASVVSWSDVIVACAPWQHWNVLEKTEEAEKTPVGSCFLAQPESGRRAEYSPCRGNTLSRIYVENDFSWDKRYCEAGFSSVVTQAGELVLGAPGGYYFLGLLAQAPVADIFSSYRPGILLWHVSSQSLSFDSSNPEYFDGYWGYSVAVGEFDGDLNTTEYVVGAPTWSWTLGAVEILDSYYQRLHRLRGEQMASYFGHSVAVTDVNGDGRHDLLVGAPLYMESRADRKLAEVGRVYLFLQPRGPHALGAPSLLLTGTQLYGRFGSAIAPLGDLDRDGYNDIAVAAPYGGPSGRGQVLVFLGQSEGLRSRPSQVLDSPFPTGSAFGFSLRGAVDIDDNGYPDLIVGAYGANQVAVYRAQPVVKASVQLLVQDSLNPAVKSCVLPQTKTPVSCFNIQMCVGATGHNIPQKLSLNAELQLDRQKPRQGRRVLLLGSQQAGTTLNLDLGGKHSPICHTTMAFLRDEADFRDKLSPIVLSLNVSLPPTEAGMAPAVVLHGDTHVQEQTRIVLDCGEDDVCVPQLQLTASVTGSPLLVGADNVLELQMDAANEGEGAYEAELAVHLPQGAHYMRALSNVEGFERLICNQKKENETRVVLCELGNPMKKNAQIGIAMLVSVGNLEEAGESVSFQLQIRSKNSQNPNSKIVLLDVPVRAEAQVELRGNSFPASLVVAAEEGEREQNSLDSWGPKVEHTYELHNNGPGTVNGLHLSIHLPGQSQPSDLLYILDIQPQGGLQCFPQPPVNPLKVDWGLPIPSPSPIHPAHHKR
- Sequence (P08514 891-1039 limits assumed): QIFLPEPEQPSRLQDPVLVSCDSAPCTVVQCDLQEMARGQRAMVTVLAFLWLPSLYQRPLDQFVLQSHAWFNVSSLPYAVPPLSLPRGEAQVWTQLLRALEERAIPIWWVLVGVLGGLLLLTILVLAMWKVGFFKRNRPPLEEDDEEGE
- ASSAY_DETAILS: Affinity for purified human platelet glycoprotein alpha IIb beta3 integrin receptor in ELISA
Hi there, I'd appreciate the recorded pIC50 for every entry that follows.
When answering, recall that pIC50 equals minus log10 of the concentration in mol/L, and write that number alone.

Hi! What's the reported pIC50 for N=C(N)c1ccc(C2=NOC(CC(=O)NCC(NP(=O)(O)O)C(=O)O)C2)cc1 (stereo unspecified) on Integrin alpha-IIb/beta-3 (Homo sapiens, UniProt P05106+P08514)?
8.59

Input CCOP(=O)(NC(CNC(=O)CC1CC(c2ccc(C(=N)N)cc2)=NO1)C(=O)O)OCC (stereo unspecified)
8.77

Request: COP(=O)(NC(CNC(=O)CC1CC(c2ccc(C(=N)N)cc2)=NO1)C(=O)O)OC (stereo unspecified)
9.26

Please give the result for CCCCOP(=O)(NC(CNC(=O)CC1CC(c2ccc(C(=N)N)cc2)=NO1)C(=O)O)OCCCC (stereo unspecified) too.
8.92

Another compound to check: C=CCOP(=O)(NC(CNC(=O)CC1CC(c2ccc(C(=N)N)cc2)=NO1)C(=O)O)OCC=C (stereo unspecified)
8.82

Moving on to CC(C)OP(=O)(NC(CNC(=O)CC1CC(c2ccc(C(=N)N)cc2)=NO1)C(=O)O)OC(C)C (stereo unspecified)
9.07

###

- TARGET_SYSTEM: Integrin alpha-IIb/beta-3 (Homo sapiens, UniProt P05106+P08514)
- ASSAY_DETAILS: Inhibition of fibrinogen (Fg) interaction with GPIIb/IIIa in gel filtered platelets
- Assay type: functional
Please respond with reported pIC50 for every item in the list.
In textbook form, pIC50 equals minus log to base ten of the concentration in mol/L.

Reported pIC50 for Integrin alpha-IIb/beta-3 (Homo sapiens, UniProt P05106+P08514), given CCOP(=O)(NC(CNC(=O)CC1CC(c2ccc(C(=N)N)cc2)=NO1)C(=O)O)OCC (stereo not drawn) ?
6.99

// query: CCCCOC(=O)N[C@@H](CNC(=O)C[C@H]1CC(c2ccc(C(=N)N)cc2)=NO1)C(=O)O
7.68

Now consider CCCCOP(=O)(NC(CNC(=O)CC1CC(c2ccc(C(=N)N)cc2)=NO1)C(=O)O)OCCCC (stereo not drawn) .
7.26

What do you have for N=C(N)c1ccc(C2=NOC(CC(=O)NCCC(=O)O)C2)cc1 (stereo not drawn) ?
6.85

Record: C=CCOP(=O)(NC(CNC(=O)CC1CC(c2ccc(C(=N)N)cc2)=NO1)C(=O)O)OCC=C (stereo not drawn)
7.34

And COP(=O)(NC(CNC(=O)CC1CC(c2ccc(C(=N)N)cc2)=NO1)C(=O)O)OC (stereo not drawn) ?
7.27

What do you get for N=C(N)c1ccc(C2=NOC(CC(=O)NCC(NP(=O)(O)O)C(=O)O)C2)cc1 (stereo not drawn) ?
6.64

Moving on to the next molecule: CC(C)OP(=O)(NC(CNC(=O)CC1CC(c2ccc(C(=N)N)cc2)=NO1)C(=O)O)OC(C)C (stereo not drawn)
7.14
